- assay-summary: In vivo pharmacokinetics in Sprague Dawley rats
- Design: species or system rat
- condition-summary: Sprague-Dawley, rat; male SD rats, 20 mg/kg IP, plasma; read-out: half-life in plasma
test-readout: half-life

In: For CN(C)CCCn1c(SCCc2c[nH]c3ccccc23)nc2ccc(F)cc2c1=O.Cl [TG15-132S] , what is its reported half-life?
Out: > 5 h

====

- assay-summary: In vivo pharmacokinetics in Sprague Dawley rats
- Design: species or system rat
- condition-summary: male, Sprague-Dawley, rat, brain and plasma; SD rats, single 20 mg/kg IP; read-out: brain-to-plasma ratio
test-readout: Kp

In: For CN(C)CCCn1c(SCCc2c[nH]c3ccccc23)nc2ccc(Cl)cc2c1=O.Cl [TG15-139S] , what is its reported Kp?
Out: > 23
